# targetOrTestSystem: 5-hydroxytryptamine receptor 6 (Homo sapiens)
# Sequence (P50406 whole entry): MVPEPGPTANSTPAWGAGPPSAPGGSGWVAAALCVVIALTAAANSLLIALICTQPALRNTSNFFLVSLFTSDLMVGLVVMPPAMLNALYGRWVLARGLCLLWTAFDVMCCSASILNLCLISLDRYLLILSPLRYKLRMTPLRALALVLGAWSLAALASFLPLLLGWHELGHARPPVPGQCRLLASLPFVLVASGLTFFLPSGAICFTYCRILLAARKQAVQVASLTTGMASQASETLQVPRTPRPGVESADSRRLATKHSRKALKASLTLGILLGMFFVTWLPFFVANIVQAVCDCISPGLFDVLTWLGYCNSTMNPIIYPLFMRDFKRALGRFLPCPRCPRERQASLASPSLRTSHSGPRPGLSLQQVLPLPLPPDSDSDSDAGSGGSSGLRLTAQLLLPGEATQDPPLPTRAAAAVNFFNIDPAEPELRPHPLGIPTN
# protocolDetails: Displacement of [3H]-LSD from human 5-HT6R expressed in HEK293 cells after 1 hr by microbeta plate reader analysis
# Type: cell-based
testReadout: log10 of Ki (log10 of the value in nM)
Friendly reminder: values = log10 of Ki, unit nM.

Below, 5 molecules whose answers are already recorded.
| molecule | targetOrTestSystem | log10 of Ki |
| --- | --- | --- |
| COc1ccc2[nH]c(C)c(CCNCc3ccc(-c4ccc(O)cc4)o3)c2c1 | 5-hydroxytryptamine receptor 6 (Homo sapiens) | 1.32 |
| Cc1ccc2[nH]cc(CCNCc3ccc(-c4ccc(O)cc4)o3)c2c1 | 5-hydroxytryptamine receptor 6 (Homo sapiens) | 0.70 |
| COc1cccc2[nH]cc(CCNCc3ccc(-c4ccc(F)cc4)o3)c12 | 5-hydroxytryptamine receptor 6 (Homo sapiens) | 2.12 |
| COc1ccc2[nH]cc(CCN(C)Cc3ccc(-c4ccc(O)cc4)o3)c2c1 | 5-hydroxytryptamine receptor 6 (Homo sapiens) | 2.30 |
| COc1cccc2[nH]cc(CCNCc3ccc(-c4ccc(O)cc4)o3)c12 | 5-hydroxytryptamine receptor 6 (Homo sapiens) | 1.15 |

Req: Report measured log10 of Ki; entry is COc1ccc2[nH]cc(CCNCc3ccc(-c4ccc(Cl)cc4)o3)c2c1
Resp: 1.83

Req: Fill in log10 of Ki for record CC(Cc1c[nH]c2ccccc12)NCc1ccc(-c2ccc(O)cc2)o1 (stereo unspecified)
Resp: 2.68

Req: Tell me its log10 of Ki given Oc1ccc(-c2ccc(CNCCc3c[nH]c4cc(F)ccc34)o2)cc1 as the entry.
Resp: 0.30

Req: Output log10 of Ki of Cn1cc(CCNCc2ccc(-c3ccccc3)o2)c2ccccc21
Resp: 2.48

Req: Give recorded log10 of Ki. c1ccc2c(-c3ccc(CNCCc4c[nH]c5ccccc45)o3)cccc2c1
Resp: 2.30

Req: Give me measured log10 of Ki, please, for this molecule: CC(=O)Oc1ccc(-c2ccc(CNCCc3c[nH]c4ccccc34)o2)cc1
Resp: 3.16

Req: Provide only the value of recorded log10 of Ki for c1ccc2c(CCNCc3ccc(-c4ccc5c(c4)OCO5)o3)c[nH]c2c1
Resp: 2.34

Req: Retrieve log10 of Ki measured for COc1cccc(-c2ccc(CNCCc3cn(C)c4ccccc34)o2)c1 and print it.
Resp: 2.75

Req: Hello, please tell me recorded log10 of Ki for this one: Clc1cccc(-c2ccc(CNCCc3c[nH]c4ccccc34)o2)c1
Resp: 2.27

Req: Consider the molecule COc1ccc2[nH]cc(CCNCc3ccc(-c4ccc(O)cc4)o3)c2c1 . State its measured log10 of Ki.
Resp: 0.48

Req: Provide measured log10 of Ki value, entry: COc1cccc2[nH]cc(CCNCc3ccc(-c4ccccc4)o3)c12
Resp: 2.04

Req: Output measured log10 of Ki for this item: c1coc(-c2ccc(CNCCc3c[nH]c4ccccc34)o2)c1
Resp: 2.62

====

# targetOrTestSystem: UniProt:P50406
# protocolDetails: Binding affinity to 5-HT6R (unknown origin) assessed as inhibitory constant
Recorded measurements of Ki, one per entry
Give the value, in units of nM, as a plain number.

Study these solved cases before continuing.
| molecule | uom | Ki |
| --- | --- | --- |
| CN1C=C2C(NC(=S)NC2c2ccc(F)cc2)/C(=C\c2ccc(F)cc2)C1 (stereo not drawn) | nM | 596 |
| CN1CCN(c2oc(-c3ccccc3Cl)nc2S(=O)(=O)c2ccccc2)CC1 | nM | 61 |

Req: Identify measured Ki associated with CC1=CC=CN2C(=O)C3C=C(S(=O)(=O)c4ccccc4)C(=N)N(Cc4ccc(F)cc4)C3N=C12 (stereo not drawn)
Resp: 594
